- System under test: aggrecanase-1 (Homo sapiens, UniProt O75173)
- Sequence (O75173 213-837, species assumed): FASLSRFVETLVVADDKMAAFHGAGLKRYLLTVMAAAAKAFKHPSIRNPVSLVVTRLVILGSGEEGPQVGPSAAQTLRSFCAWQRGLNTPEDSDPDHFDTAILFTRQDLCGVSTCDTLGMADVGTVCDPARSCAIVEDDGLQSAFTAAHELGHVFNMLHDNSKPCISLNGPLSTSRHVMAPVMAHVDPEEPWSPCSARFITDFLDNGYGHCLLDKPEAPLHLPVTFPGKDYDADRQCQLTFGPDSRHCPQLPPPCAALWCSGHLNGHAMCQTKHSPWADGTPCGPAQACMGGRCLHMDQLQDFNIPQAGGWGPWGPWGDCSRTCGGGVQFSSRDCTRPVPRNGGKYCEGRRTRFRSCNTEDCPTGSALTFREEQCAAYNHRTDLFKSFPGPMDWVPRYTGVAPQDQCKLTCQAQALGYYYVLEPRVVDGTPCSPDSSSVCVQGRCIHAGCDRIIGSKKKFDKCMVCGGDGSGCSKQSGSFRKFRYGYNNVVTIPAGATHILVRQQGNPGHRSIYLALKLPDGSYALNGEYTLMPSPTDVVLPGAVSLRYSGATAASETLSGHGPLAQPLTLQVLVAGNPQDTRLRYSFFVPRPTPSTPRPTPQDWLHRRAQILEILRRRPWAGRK
- Assay text: Aggrecanase-1 inhibitory action (Particle Assay, GAG release from aggrecan-containing polyacrylamide particles)
- Type: biochemical
- Details: aggrecanase-1 inhibitory action; read-out: IC50 AG1 (Experimental Example 1)
pIC50: −log10 of the molar value.

[
  {
    "Compound": "O=C(O)C1(NS(=O)(=O)N2CCC(Oc3ccc(Cl)cc3)CC2)CC1c1ccccc1 (stereo not shown) [Example 2-128]",
    "pIC50": "≤ 5.00"
  },
  {
    "Compound": "O=C1Nc2ccccc2C2CC12NS(=O)(=O)c1ccc(-c2ccc(Cl)cc2)s1 (stereo not shown) [Example 2-218]",
    "pIC50": "≤ 6.00"
  },
  {
    "Compound": "O=C(O)[C@]1(NS(=O)(=O)c2ccc(-c3cc(C(F)(F)C(F)(F)F)on3)s2)C[C@@H]1c1ccccc1 [Example 2-111]",
    "pIC50": "≤ 6.00"
  },
  {
    "Compound": "COC(=O)c1cccc(C2CC2(NS(=O)(=O)c2ccc(-c3ccc(Cl)cc3)s2)C(=O)O)c1 (stereo not shown) [Example 2-184]",
    "pIC50": "> 7.00"
  },
  {
    "Compound": "CN1CCN(C(=O)c2ccccc2C2CC2(NS(=O)(=O)c2ccc(-c3ccc(Cl)cc3)s2)C(=O)O)CC1 (stereo not shown) [Example 2-216]",
    "pIC50": "> 6.00"
  },
  {
    "Compound": "O=C(O)C1(NS(=O)(=O)c2ccc(-c3cc(C(F)(F)F)on3)s2)CC1c1ccccc1CCO (stereo not shown) [Example 2-240]",
    "pIC50": "> 6.00"
  },
  {
    "Compound": "O=C(O)C1(NS(=O)(=O)c2ccc(-c3ccc(Cl)cc3)s2)CC1c1ccccc1CN1CCOCC1 (stereo not shown) [Example 2-91]",
    "pIC50": "> 6.00"
  }
]
